Examples of sequences with documented fraction ligated follow.
test system: F1*sub RNA substrate (template-directed ligation); assay: fraction ligated after 30 min (ligated reads / total reads); higher = more ligase activity; sequences stand for … in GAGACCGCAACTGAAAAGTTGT…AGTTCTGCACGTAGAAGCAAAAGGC; conditions: 42 °C
Write the value as a bare number.

seq string: TATCACTTGCGTAAGACACTTTGGATGGGTTA [2d177]
fraction ligated: 0.822
//
seq string: TATCACTTTCGTAAGAACTTTGGAGGGTTGA [3d1543]
fraction ligated: 0.126

The sequence listed as TATCACTTTCGAGACACTTTGGATGGGTTGA [3d1493] shows fraction ligated equal to 0.79

Looking up TACACTTGTCGTAAGACACTTTGGATGGTTG [3d735] , I see its fraction ligated listed as 0.507

Item: ACACTTGTCGTAAGACCTTTGGATGGGTTGA [3d37] | fraction ligated: 0.627

Lab note: measured fraction ligated of TATCACTTGTGTAAAACTTTGGATGGGTTGA [3d1744] was 0.856
